- Tested on: Lefty1
- Assay text: Lefty1 protein binding to printed compounds – biochemical, small-molecule microarray, 635/667 nm fluorescence, primary screen (AID 1139)
- Run conditions: fluorescence 635/667, higher = more signal
composite z-score values, listed per item
Value kind: composite z-score

Molecule	Target desc	Value kind	Value reported
CCOC(=O)C1=C[C@@H](C(C)(C)C)N(S(=O)(=O)c2ccc(C)cc2)[C@H]1c1ccc(Cl)c(Cl)c1	Lefty1	composite z-score	0.495
O=C1OCC=C[C@H]2OC34C=CCN(c5ccc6ccccc6c5)C(=O)[C@H]3N(CCO)C(=O)[C@@H]4[C@@H]12 (stereo not given in full)	Lefty1	composite z-score	-0.455
CN1C(=O)C2C=CC(C(O)C(C)(C)C)N(Nc3ccccc3)C2C1=O (stereo not given)	Lefty1	composite z-score	-1.06
Cc1ccc(N2C(=O)c3ccccc3[C@](C)(C(=O)NCCN3CCOCC3)[C@@H]2c2ccc(CO)cc2)nc1	Lefty1	composite z-score	-1.26
C=CCN1C(=O)[C@@]2(O[C@@H](CCO)[C@H]([Si](C)(C)c3ccc(OC)cc3)[C@H]2C)c2cc(NC(C)=O)ccc21	Lefty1	composite z-score	1.22
CCOC(=O)C[C@H]1[C@H](OC(=O)c2ccc(C(=O)c3ccccc3)cc2)[C@@H](NC(=O)c2ccc3ccccc3n2)c2cc(OCCCO)ccc2N1C(=O)c1ccc2ccccc2n1	Lefty1	composite z-score	0.105
C[N+](C)(C)CCCC[C@@H]1NC(=O)[C@@H]2C[C@H](C(=O)NCCCCCCNC(=O)CS)[C@H](c3cccc(OCCO)c3)N2C1=O	Lefty1	composite z-score	1.29
Cc1c(NC(=O)/C(C#N)=C/C=C/c2ccccc2)c(=O)n(-c2ccccc2)n1C	Lefty1	composite z-score	0.451
COc1ccc([Si](C)(C)[C@@H]2[C@@H](CCO)O[C@]3(C(=O)N(Cc4cccc(N(C=O)c5ccccc5)c4)c4ccccc43)[C@H]2C)cc1	Lefty1	composite z-score	0.127
NC(=O)NCC#Cc1ccc2c(c1)[C@]1(C(=O)N2)[C@H](C(=O)NC[C@H](O)c2ccccc2)[C@H]2C(=O)O[C@H](c3ccccc3)[C@H](c3ccccc3)N2[C@@H]1c1ccccc1OCCO	Lefty1	composite z-score	0.28
NC(=O)NCC#Cc1ccc2c(c1)[C@]1(C(=O)N2)[C@H](c2ccccc2OCCO)N2[C@H](c3ccccc3)[C@H](c3ccccc3)OC(=O)[C@H]2[C@@H]1C(=O)N1CCCCCCC1	Lefty1	composite z-score	0.912
COc1ccc([Si](C)(C)[C@@H]2[C@@H](CCO)O[C@]3(C(=O)N(Cc4ccccc4)c4ccc(N(C=O)c5ccccc5)cc43)[C@H]2C)cc1	Lefty1	composite z-score	0.497
CCCC[C@@H]1C[C@H]1[C@@H](NC(=O)c1ccccc1)c1ccccc1	Lefty1	composite z-score	-0.235
O=C(NCCN1CCOCC1)[C@@H]1c2ccccc2C(=O)N(Cc2cc(F)cc(C(F)(F)F)c2)[C@H]1c1ccc(CO)cc1	Lefty1	composite z-score	0.314
Cc1ccc(S(=O)(=O)N2CC(C(=O)O)=CCC2c2ccccc2)cc1 (stereo not given)	Lefty1	composite z-score	-0.946

Measured values drawn from PubChem BioAssay for this set.
